// data source = patent US20250320312A1

Overview of recorded OD450 for various binders
biological target: Peptide 1: Biotin-…-[Tyr(PC)]-acid; assay: scFv ELISA
Sequence (peptide, as listed by the source): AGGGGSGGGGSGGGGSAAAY
Numbers only here, please. The scale is OD450.

Consider the reported OD450 for these binders:
PcOxP_DB02_E10 (scFv, V domains shown, scFv in periplasmic extract) VH: EVQLLESGGGLVQPGGSLRLSCAASGFTFSDQYMEWVRQAPGKGLEWVAASRNKANDYQTEYADSVKGRFTISRDNSKNTLYLQMNSLRAEDTAVYYCARDYYGSSYWYFDVWGQGTLVTVSS VL: DIQMTQSPSSLSASVGDRVTITCTASESLYSGKHKVHYLAWYQQKPGKAPKLLIYGASNLQIGVPSRFSGSGSGTDFTLTISSLQPEDFATYYCAQFYYYPLTFGGGTKVEIK: 0.52
PcOxP_DB01_G07 (scFv, V domains shown, scFv in periplasmic extract) VH: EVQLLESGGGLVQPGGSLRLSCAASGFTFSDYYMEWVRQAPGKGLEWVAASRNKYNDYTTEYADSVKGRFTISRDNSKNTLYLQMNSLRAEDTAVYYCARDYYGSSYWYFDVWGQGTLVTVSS VL: DIVMTQSPDSLAVSLGERATINCTASESLYGSKHKVHYLAWYQQKPGQPPKLLIYGASNRYIGVPDRFSGSGSGTDFTLTISSLQAEDVAVYYCAQFYSYPLTFGGGTKVEIK: 0.46
PcOxP_DB02_H06 (scFv, V domains shown, scFv in periplasmic extract) VH: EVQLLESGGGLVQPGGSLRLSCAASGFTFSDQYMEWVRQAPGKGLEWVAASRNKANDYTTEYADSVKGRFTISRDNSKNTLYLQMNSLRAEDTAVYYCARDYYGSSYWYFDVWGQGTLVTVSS VL: DIVMTQSPDSLAVSLGERATINCTSSESLYSSKNKVNYLAWYQQKPGQPPKLLIYGASNRYIGVPDRFSGSGSGTDFTLTISSLQAEDVAVYYCAQFYFYPLTFGGGTKVEIK: 0.92

Request the reported OD450 associated with PcOxP_DB03_D07 (scFv, V domains shown, scFv in periplasmic extract) VH: EVQLLESGGGLVQPGGSLRLSCAASGFTFSDVYMEWVRQAPGKGLEWVAASRNKANDYTTEYADSVKGRFTISRDNSKNTLYLQMNSLRAEDTAVYYCARDYYGSSYWYFDVWGQGTLVTVSS VL: DIQMTQSPSSLSASVGDRVTITCTASESLYSSKHKVHYLAWYQQKPGKAPKLLIYGASNRYSGVPSRFSGSGSGTDFTLTISSLQPEDFATYYCAQFYKYPLTFGGGTKVEIK 0.75

Next record, please: PcOxP_DB04_G01 (scFv, V domains shown, scFv in periplasmic extract) VH: EVQLLESGGGLVQPGGSLRLSCAASGFTFSDYYMEWVRQAPGKGLEWVAASRNKWNDYTTEYADSVKGRFTISRDNSKNTLYLQMNSLRAEDTAVYYCARDYYLSSYWYFDVWGQGTLVTVSS VL: DIVMTQSPDSLAVSLGERATINCKASQSVLSSKNNVNYLAWYQQKPGQPPKLLIYGASNRYIGVPDRFSGSGSGTDFTLTISSLQAEDVAVYYCAQFYQYPLTFGGGTKVEIK 0.63
